Record form. Attribute: pIC50. Fill in for each entry.
Test system: U-937
Assay: Cytotoxicity against human U937 cells after 72 hrs by MTT assay
Type: functional, cell-based
Details: U-937, 72 h
Answers are plain numbers, as −log10 of the molar value.

Reference set, count: 2
{"molecule": "C=C1CC[C@@H](OC(C)=O)[C@]2(C)C[C@H](OC(C)=O)[C@H]3C(=C)C(=O)O[C@@H]3C12 (some centres undefined)", "assayed_system": "U-937", "obs_value": 5.04}
{"molecule": "C=C1C(=O)O[C@H]2C[C@@]3(C)[C@H](OC(C)=O)CC[C@@](C)(O)[C@H]3[C@@H](OC(C)=O)[C@H]12", "assayed_system": "U-937", "obs_value": 4.98}

The molecule COc1cc([C@@H]2c3cc4c(cc3[C@@H](O[C@@H]3O[C@@H]5CO[C@@H](C)O[C@H]5[C@H](O)[C@H]3O)[C@H]3COC(=O)[C@H]23)OCO4)cc(OC)c1O [ETOPOSIDE] showed pIC50 equal to 6.04
